# reported MIC P. aeruginosa 068; entries follow
Test system: Pseudomonas aeruginosa
Assay type: cell-based
Protocol: To evaluate the potency and spectrum of the compounds, susceptibility testing was performed against up to nine strains of each of the Gram negative pathogens, Escherichia coli, Pseudomonas aeruginosa, Klebsiella pneumoniae and Acinetobacter baumannii. The values in Table 2 are MIC (μg/mL) against strains of E. coli, K. pneumoniae, P. aeruginosa and A. baumanii, including strains which show elevated MICs to Polymyxin. The values in Table 2A are MIC (μg/mL). […]
Bridge positions count the residues as written; N and C are the ends. Square brackets hold non-standard residues; d marks the D form. Peptide text beside a SMILES is read from it. * marks the point of attachment. ξ: configuration not given here. dBip = N[C@H](Cc1ccc(-c2ccccc2)cc1)C(=O)O; X16 = Cc1cc(C)cc(CO[C@@H](CCN)C(=O)*)c1; X9 = Cc1ccc(CO[C@@H](CCN)C(=O)*)cc1; dCha = N[C@H](CC1CCCCC1)C(=O)O; Thr(3ξ) = CC(O)[C@H](N)C(=O)O; X1 = CC(C)CN1CCNC[C@H]1C(=O)*; X19 = NCCC(C(=O)*)C1CCCCC1; X24 = NCCC(Cc1ccsc1)C(=O)*; Dab = NCC[C@H](N)C(=O)O; Dap = NC[C@H](N)C(=O)O
Report the figure in µg/mL without appending any unit label.

Please review the entries below; each comes with its answer.
>>> measvalue("CC(C)C[C@@H]1NC(=O)[C@@H](CC2CCCCC2)NC(=O)[C@H](CCN)NC(=O)[C@@H](NC(=O)[C@H](CN)NC(=O)[C@@H](NC(=O)CC(CN)c2ccc(Cl)cc2)C(C)O)CCNC(=O)[C@H]([C@@H](C)O)NC(=O)[C@H](CCN)NC(=O)[C@H](CCN)NC1=O (single isomer, unassigned; isomer 1)")
1
>>> measvalue("CC(C)C[C@@H]1NC(=O)[C@@H](CC2CCCCC2)NC(=O)[C@H](CCN)NC(=O)[C@@H](NC(=O)[C@H](CCN)NC(=O)[C@@H](NC(=O)[C@@H]2CNCCN2CC(C)C)C(C)O)CCNC(=O)[C@H]([C@@H](C)O)NC(=O)[C@H](CCN)NC(=O)[C@H](CCN)NC1=O (some centres unmarked) [Example 52] (X1-[Thr(3ξ)][Dab][Dab][Dab][dCha]L[Dab][Dab]T; lactam 3-C)")
16
>>> measvalue("CC(C)C[C@@H]1NC(=O)[C@@H](CC2CCCCC2)NC(=O)[C@H](CCN)NC(=O)[C@@H](NC(=O)[C@H](CN)NC(=O)[C@@H](NC(=O)C(CCN)C2CCCCC2)[C@@H](C)O)CCNC(=O)[C@H]([C@@H](C)O)NC(=O)[C@H](CCN)NC(=O)[C@H](CCN)NC1=O (some centres unmarked) [Example 85] (X19-T[Dap][Dab][Dab][dCha]L[Dab][Dab]T; lactam 3-C)")
2
>>> measvalue("CCCCC(CCN)C(=O)N[C@H](C(=O)N[C@@H](CN)C(=O)N[C@H]1CCNC(=O)[C@H]([C@@H](C)O)NC(=O)[C@H](CCN)NC(=O)[C@H](CCN)NC(=O)[C@H](CC(C)C)NC(=O)[C@@H](CC2CCCCC2)NC(=O)[C@H](CCN)NC1=O)[C@@H](C)O (single isomer, unassigned; isomer 2)")
4
>>> measvalue("CC(C)CC1CNCC(C(=O)N[C@H](C(=O)N[C@@H](CN)C(=O)N[C@H]2CCNC(=O)[C@H]([C@@H](C)O)NC(=O)[C@H](CCN)NC(=O)[C@H](CCN)NC(=O)[C@H](CC(C)C)NC(=O)[C@@H](Cc3ccc(-c4ccccc4)cc3)NC(=O)[C@H](CCN)NC2=O)C(C)O)C1 (single isomer, unassigned; isomer 2) [Example 4]")
1
>>> measvalue("Cc1ccc(CO[C@@H](CCN)C(=O)N[C@H](C(=O)N[C@@H](CN)C(=O)N[C@H]2CCNC(=O)[C@H]([C@@H](C)O)NC(=O)[C@H](CCN)NC(=O)[C@H](CCN)NC(=O)[C@H](CC(C)C)NC(=O)[C@@H](CC3CCCCC3)NC(=O)[C@H](CCN)NC2=O)[C@@H](C)O)cc1 [Example 71] (X9-T[Dap][Dab][Dab][dCha]L[Dab][Dab]T; lactam 3-C)")
8

Inquiry: Entry Cc1cc(C)cc(CO[C@@H](CCN)C(=O)N[C@H](C(=O)N[C@@H](CN)C(=O)N[C@H]2CCNC(=O)[C@H]([C@@H](C)O)NC(=O)[C@H](CCN)NC(=O)[C@H](CCN)NC(=O)[C@H](CC(C)C)NC(=O)[C@@H](CC3CCCCC3)NC(=O)[C@H](CCN)NC2=O)[C@@H](C)O)c1 [Example 90] (X16-T[Dap][Dab][Dab][dCha]L[Dab][Dab]T; lactam 3-C) : reported MIC P. aeruginosa 068 = ?
Reply text: 4

Inquiry: Now give it for CC(C)C[C@@H]1NC(=O)[C@@H](Cc2ccc(-c3ccccc3)cc2)NC(=O)[C@H](CCN)NC(=O)[C@@H](NC(=O)[C@H](CN)NC(=O)[C@@H](NC(=O)[C@@H]2CNCCN2CC(C)C)C(C)O)CCNC(=O)[C@H]([C@@H](C)O)NC(=O)[C@H](CCN)NC(=O)[C@H](CCN)NC1=O (some centres unmarked) [Example 5] (X1-[Thr(3ξ)][Dap][Dab][Dab][dBip]L[Dab][Dab]T; lactam 3-C) too.
Reply text: 4

Inquiry: Now give it for CC(C)C[C@@H]1NC(=O)[C@@H](CC2CCCCC2)NC(=O)[C@H](CCN)NC(=O)[C@@H](NC(=O)[C@H](CN)NC(=O)[C@@H](NC(=O)C(CCN)Cc2ccccc2F)[C@@H](C)O)CCNC(=O)[C@H]([C@@H](C)O)NC(=O)[C@H](CCN)NC(=O)[C@H](CCN)NC1=O (single isomer, unassigned; isomer 2) too.
Reply text: 2

Inquiry: Now give it for CC(C)C[C@@H]1NC(=O)[C@@H](CC2CCCCC2)NC(=O)[C@H](CCN)NC(=O)[C@@H](NC(=O)[C@H](CN)NC(=O)[C@@H](NC(=O)C(CCN)Cc2ccccc2)C(C)O)CCNC(=O)[C@H]([C@@H](C)O)NC(=O)[C@H](CCN)NC(=O)[C@H](CCN)NC1=O (single isomer, unassigned; isomer 2) too.
Reply text: 1

Inquiry: Now give it for CC(C)C[C@@H]1NC(=O)[C@@H](CC2CCCCC2)NC(=O)[C@H](CCN)NC(=O)[C@@H](NC(=O)[C@H](CN)NC(=O)[C@@H](NC(=O)C(CCN)Cc2ccsc2)[C@@H](C)O)CCNC(=O)[C@H]([C@@H](C)O)NC(=O)[C@H](CCN)NC(=O)[C@H](CCN)NC1=O (some centres unmarked) [Example 68] (X24-T[Dap][Dab][Dab][dCha]L[Dab][Dab]T; lactam 3-C) too.
Reply text: 1
